# MEASUREMENT DESCRIPTION: MTT assay, PhTERT-SEAP (H1299)
# Type: cell-based, human
# PARTICULARS: human, H1299 cells carrying the PhTERT-SEAP reporter; Conc. 1 μM; PhTERT-SEAP (H1299); read-out: Relative MTT viability (%)
# viability at 1 μM listing for each entry below
ENDPOINT LABEL: viability at 1 μM (%)

> print(dat)
                                smiles.repr     endpoint.label  u  result.value
1  O=C(CCl)Nc1ccc2c(c1NC(=O)c1ccco1)C(=O)c1ccccc1C2=O  viability at 1 μM  %          80.4
2  Cc1ccc(C(=O)Nc2ccc3c(c2NC(=O)c2ccc(C)cc2)C(=O)c2ccccc2C3=O)cc1  viability at 1 μM  %           100
3  O=C(CCl)Nc1ccc2c(c1NC(=O)CCCCl)C(=O)c1ccccc1C2=O  viability at 1 μM  %           100
4  Cc1ccc(C(=O)Nc2c(NC(=O)CN3CCN(c4ccccc4F)CC3)ccc3c2C(=O)c2ccccc2C3=O)cc1  viability at 1 μM  %          79.8
5  O=C(CCl)Nc1ccc2c(c1NC(=O)CSc1ccccc1)C(=O)c1ccccc1C2=O  viability at 1 μM  %          88.5
6  O=C(CCl)Nc1ccc2c(c1NC(=O)c1cccc(Cl)c1)C(=O)c1ccccc1C2=O  viability at 1 μM  %          89.7
7  O=C(CCl)Nc1ccc2c(c1NC(=O)Cc1ccc(F)cc1)C(=O)c1ccccc1C2=O  viability at 1 μM  %          88.9
8  Cc1ccc(C(=O)Nc2c(NC(=O)CN3CCC4(CC3)OCCO4)ccc3c2C(=O)c2ccccc2C3=O)cc1  viability at 1 μM  %          74.3

Where these numbers come from: patent US8530465B2
